All values here come from ChEMBL document CHEMBL1201862.

target: Luciferin 4-monooxygenase (Photinus pyralis); assay: inhibition of purified Photinus pyralis luciferase – biochemical, luminescence, dose response (AID 1891)
Sequence (P08659 whole entry): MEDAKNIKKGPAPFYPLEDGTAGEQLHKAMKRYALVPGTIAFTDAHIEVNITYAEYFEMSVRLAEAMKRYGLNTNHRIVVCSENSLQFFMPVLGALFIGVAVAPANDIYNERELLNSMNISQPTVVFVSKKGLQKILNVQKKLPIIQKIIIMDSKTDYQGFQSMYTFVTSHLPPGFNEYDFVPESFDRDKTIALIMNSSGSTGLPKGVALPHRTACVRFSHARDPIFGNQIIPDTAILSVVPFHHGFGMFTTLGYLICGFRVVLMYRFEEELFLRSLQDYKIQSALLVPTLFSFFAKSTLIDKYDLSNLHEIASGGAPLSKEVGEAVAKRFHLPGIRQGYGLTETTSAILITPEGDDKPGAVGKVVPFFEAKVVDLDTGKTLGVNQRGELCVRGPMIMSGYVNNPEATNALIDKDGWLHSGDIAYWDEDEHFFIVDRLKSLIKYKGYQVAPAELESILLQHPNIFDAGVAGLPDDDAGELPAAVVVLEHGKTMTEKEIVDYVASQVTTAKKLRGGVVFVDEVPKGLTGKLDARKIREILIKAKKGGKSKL
Activity calls are given as the source filed them.

| COMPOUND | TESTED SYSTEM | EC50 |
| --- | --- | --- |
| COc1cc2c(cc1OC)C1=C(C#N)CN(CC(=O)O)CN1CC2 | Luciferin 4-monooxygenase (Photinus pyralis) | > 112 µM (not active) |
| O=C(O)C1C2C=CC(C2)C1C(=O)NCc1ccco1 (configuration not stated) | Luciferin 4-monooxygenase (Photinus pyralis) | > 112 µM (not active) |
| O=C(NCCSc1c[nH]c2ccccc12)c1c(F)cccc1F | Luciferin 4-monooxygenase (Photinus pyralis) | > 112 µM (not active) |
| CCn1c(Cc2cccn2C)nnc1SCC(=O)c1ccc(C)cc1 | Luciferin 4-monooxygenase (Photinus pyralis) | > 112 µM (not active) |
| CC(=O)c1ccc(NC(=O)c2cc[nH]n2)cc1 | Luciferin 4-monooxygenase (Photinus pyralis) | 31.4 µM (active) |
| CCOc1ccccc1CN(CCc1ccc2c(c1)OCO2)Cc1ccccn1 | Luciferin 4-monooxygenase (Photinus pyralis) | > 112 µM (not active) |
| Cc1ncc(CN2CCC(N3CCC(C(=O)N4CCCC4)CC3)CC2)s1 | Luciferin 4-monooxygenase (Photinus pyralis) | > 112 µM (not active) |
| O=C(NC(=S)N1CCCc2ccccc21)c1ccccc1 | Luciferin 4-monooxygenase (Photinus pyralis) | > 112 µM (not active) |
| CCCN1C=CC(=C2C(=O)c3ccccc3C2=O)C=C1 | Luciferin 4-monooxygenase (Photinus pyralis) | 0.719 µM (active) |
| Oc1ccccc1N1CCN(c2ncnc3sc(-c4ccccc4)cc23)CC1 | Luciferin 4-monooxygenase (Photinus pyralis) | > 112 µM (not active) |
| Cc1cccc(OCCN2CSC(=S)N(C)C2)c1 | Luciferin 4-monooxygenase (Photinus pyralis) | > 112 µM (not active) |
| CCCc1ccc(Oc2cc(N3CCOCC3)nc(-c3ccccc3)n2)cc1 | Luciferin 4-monooxygenase (Photinus pyralis) | > 112 µM (not active) |

---

These compounds were tested on Cytochrome P450 1A2 (Homo sapiens, UniProt P05177); AC50 is the recorded read-out.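 Further: PubChem cytochrome P450 panel assay, CYP1A2 panel member.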
Sequence (P05177 whole entry): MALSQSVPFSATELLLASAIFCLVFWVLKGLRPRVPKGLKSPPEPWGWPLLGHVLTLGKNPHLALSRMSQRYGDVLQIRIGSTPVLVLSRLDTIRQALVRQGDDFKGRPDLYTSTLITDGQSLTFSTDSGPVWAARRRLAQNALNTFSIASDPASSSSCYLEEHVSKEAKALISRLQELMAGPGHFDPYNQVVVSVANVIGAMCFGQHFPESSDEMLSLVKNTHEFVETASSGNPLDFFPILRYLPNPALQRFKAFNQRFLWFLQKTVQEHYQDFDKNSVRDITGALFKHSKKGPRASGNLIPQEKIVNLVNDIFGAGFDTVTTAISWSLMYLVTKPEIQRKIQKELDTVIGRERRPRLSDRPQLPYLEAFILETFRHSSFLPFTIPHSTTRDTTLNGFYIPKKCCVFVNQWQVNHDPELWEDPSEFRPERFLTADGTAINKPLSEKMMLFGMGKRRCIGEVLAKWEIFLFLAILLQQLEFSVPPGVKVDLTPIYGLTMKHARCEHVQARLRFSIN

| COMPOUND | AC50 |
| --- | --- |
| COc1ccc(-c2cc(C(F)(F)F)n3ncc(C(=O)NCC4CCCO4)c3n2)cc1OC (stereo not given) | 5.01 µM (inconclusive) |
| c1nnc(NCNc2nncs2)s1 | 2 µM (inconclusive) |
| COC(=O)[C@@]1(Cc2ccc(OC)cc2)[C@H]2c3cc(C(=O)N4CCCC4)n(CCc4c[nH]c5ccc(OC)cc45)c3C[C@H]2CN1C(=O)c1ccccc1 | 10 µM (inconclusive) |
| COC(=O)c1cc(OC)c(OC)cc1N=C(S)N1CCN(C)CC1 | 11.2 µM (inconclusive) |
| S=C=Nc1cccc(C2(N3CCCCC3)CCCCC2)c1 | 31.6 µM (inconclusive) |
| O=C(O)CN1C(=O)CN=C(c2ccccn2)c2cc(Cl)ccc21 | 1.26 µM (inconclusive) |
| CN1C[C@@H](CS(=O)(=O)N(C)C)C[C@H]2c3cccc4c3c(cn4C)C[C@@H]21 | 25.1 µM (inconclusive) |
| CN(Cc1ccco1)c1ncncc1-c1ccccc1C(F)(F)F | 12.6 µM (inconclusive) |
| Cc1cc2nc(-c3ccc(SCC(=O)N4CCc5ccccc54)nc3)[nH]c2cc1C | 3.16 µM (inconclusive) |
| O=C(c1cnccn1)N1CCC2(CC1)CN(c1cccc(-c3ccccc3)c1)C2 | 15.8 µM (inconclusive) |
